EXPERIMENTAL_TARGET: Hepatocyte growth factor receptor (Homo sapiens) (UniProt P08581);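 note: each value is an averaged inhibition figure for MET, taken as the mean across measurements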
Sequence (P08581 whole entry): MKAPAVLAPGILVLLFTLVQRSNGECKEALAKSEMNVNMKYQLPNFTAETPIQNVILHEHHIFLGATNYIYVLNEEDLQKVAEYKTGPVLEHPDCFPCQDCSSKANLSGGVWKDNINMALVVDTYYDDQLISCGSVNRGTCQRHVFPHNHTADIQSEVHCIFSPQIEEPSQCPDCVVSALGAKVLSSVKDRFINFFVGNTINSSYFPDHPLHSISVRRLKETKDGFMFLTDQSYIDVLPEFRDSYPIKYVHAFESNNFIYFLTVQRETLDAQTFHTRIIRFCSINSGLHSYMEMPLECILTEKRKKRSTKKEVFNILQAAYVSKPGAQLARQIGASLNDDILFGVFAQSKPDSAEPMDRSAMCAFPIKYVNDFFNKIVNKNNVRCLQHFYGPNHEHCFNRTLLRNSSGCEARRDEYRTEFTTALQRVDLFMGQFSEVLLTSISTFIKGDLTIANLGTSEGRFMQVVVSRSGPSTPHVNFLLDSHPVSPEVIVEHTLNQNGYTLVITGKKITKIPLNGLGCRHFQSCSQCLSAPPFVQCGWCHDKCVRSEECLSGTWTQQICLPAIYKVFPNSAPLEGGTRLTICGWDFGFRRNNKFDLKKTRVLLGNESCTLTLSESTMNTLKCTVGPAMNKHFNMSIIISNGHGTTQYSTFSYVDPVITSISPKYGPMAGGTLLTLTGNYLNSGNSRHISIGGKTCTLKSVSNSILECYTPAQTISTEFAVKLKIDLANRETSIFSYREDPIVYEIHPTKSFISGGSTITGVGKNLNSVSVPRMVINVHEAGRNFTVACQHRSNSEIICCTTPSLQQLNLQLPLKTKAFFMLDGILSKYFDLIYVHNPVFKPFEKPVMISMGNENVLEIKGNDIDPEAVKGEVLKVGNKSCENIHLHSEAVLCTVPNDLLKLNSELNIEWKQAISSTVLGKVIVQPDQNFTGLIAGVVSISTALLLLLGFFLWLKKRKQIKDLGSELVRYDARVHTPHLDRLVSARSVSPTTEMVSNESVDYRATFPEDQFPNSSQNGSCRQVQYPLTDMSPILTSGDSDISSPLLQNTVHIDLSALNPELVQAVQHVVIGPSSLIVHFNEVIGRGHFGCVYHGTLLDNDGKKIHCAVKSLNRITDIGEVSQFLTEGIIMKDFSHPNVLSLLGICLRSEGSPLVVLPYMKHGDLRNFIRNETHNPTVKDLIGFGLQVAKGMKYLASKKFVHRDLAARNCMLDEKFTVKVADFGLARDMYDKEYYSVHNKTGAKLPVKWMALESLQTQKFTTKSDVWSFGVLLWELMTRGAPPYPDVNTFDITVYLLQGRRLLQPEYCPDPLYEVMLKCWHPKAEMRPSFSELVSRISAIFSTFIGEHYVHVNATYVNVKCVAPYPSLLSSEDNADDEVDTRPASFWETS
SETUP_CONDITIONS: at 1 µM
PARAMETER: inhibition (%)
Supply the numeric figure in %, leaving out any unit text.

Answered examples (4):
• COc1cc(C=NNc2ncnc3c2cnn3Cc2ccccc2)ccc1O = 7.19
• Fc1ccc(-c2ncn(C3CCNCC3)c2-c2ccnc(Oc3ccccc3)n2)cc1 = 0.34
• CCn1c(-c2nonc2N)nc2c(C#CCN)ncc(OCCCN)c21 = 4.36
• NS(=O)(=O)c1ccc(-c2ccc3c(NC(=O)C4CC4)n[nH]c3c2)cc1 = 0.32

Now consider the entry below.
Enquiry: Any idea what its inhibition is? The molecule is `COc1cccc(COc2cc(-n3cnc4ccccc43)sc2C(N)=O)c1`
Return: 2.86

----------
EXPERIMENTAL_TARGET: Serine/threonine-protein kinase 3 (Homo sapiens);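 note: each value is the mean inhibition of MST2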
SETUP_CONDITIONS: at 1 µM
PARAMETER: inhibition (%)
Supply the numeric figure in %, leaving out any unit text.

- NC(=O)c1sc(-n2cnc3cc(C(F)(F)F)ccc32)cc1OCc1ccccc1Br: 2.28
- CCn1c(-c2nonc2N)nc2c(C#CCN)ncc(OCCCN)c21: 6.61
- CCn1c(-c2nonc2N)nc2c(C#CC(C)(C)O)ncc(OC[C@@H]3CCCN3)c21: 2.41
- Fc1ccc(-c2ncn(C3CCNCC3)c2-c2ccnc(Oc3ccccc3)n2)cc1: 2.48
- NS(=O)(=O)c1ccc(N/C=C2\C(=O)Nc3ccc4ncsc4c32)cc1: 73.7

Now consider the entry below.
Enquiry: Any idea what its inhibition is? The molecule is `COc1cccc(-n2ncc3c(N/N=C/c4ccncc4)ncnc32)c1`
Return: 10.7

----------
EXPERIMENTAL_TARGET: Ephrin type-B receptor 2 (Homo sapiens)
SETUP_CONDITIONS: at 1 µM
Description: GSK_PKIS: EPHB2 mean inhibition at 1 uM [Nanosyn]
PARAMETER: inhibition (%)
Supply the numeric figure in %, leaving out any unit text.

* COc1cc2c(cc1Nc1nc(Nc3ccsc3C(N)=O)c3cc[nH]c3n1)N(C(=O)CN(C)C)CCC2 | 5.1

Enquiry: Any idea what its inhibition is? The compound is `Cc1cc(-c2ccco2)cc(C)c1/C=C/c1cncc(-c2nn[nH]n2)c1`
Return: 3.46

Enquiry: Any idea what its inhibition is? The compound is `NS(=O)(=O)c1ccc(N/C=C2\C(=O)Nc3ccc4ncsc4c32)cc1`
Return: 18.1

Enquiry: Any idea what its inhibition is? The compound is `Fc1ccc(-c2ncn(C3CCNCC3)c2-c2ccnc(Oc3ccccc3)n2)cc1`
Return: 5.52

Enquiry: Any idea what its inhibition is? The compound is `CCn1c(-c2nonc2N)nc2c(C#CC(C)(C)O)ncc(OC[C@@H]3CCCN3)c21`
Return: -3.01

----------
Parameter: inhibition. Scope: all listed entries.
EXPERIMENTAL_TARGET: Serine/threonine-protein kinase BRSK1 (Homo sapiens);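 note: each value is a mean percent inhibition of BRSK1 kinase activity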
Sequence (whole entry): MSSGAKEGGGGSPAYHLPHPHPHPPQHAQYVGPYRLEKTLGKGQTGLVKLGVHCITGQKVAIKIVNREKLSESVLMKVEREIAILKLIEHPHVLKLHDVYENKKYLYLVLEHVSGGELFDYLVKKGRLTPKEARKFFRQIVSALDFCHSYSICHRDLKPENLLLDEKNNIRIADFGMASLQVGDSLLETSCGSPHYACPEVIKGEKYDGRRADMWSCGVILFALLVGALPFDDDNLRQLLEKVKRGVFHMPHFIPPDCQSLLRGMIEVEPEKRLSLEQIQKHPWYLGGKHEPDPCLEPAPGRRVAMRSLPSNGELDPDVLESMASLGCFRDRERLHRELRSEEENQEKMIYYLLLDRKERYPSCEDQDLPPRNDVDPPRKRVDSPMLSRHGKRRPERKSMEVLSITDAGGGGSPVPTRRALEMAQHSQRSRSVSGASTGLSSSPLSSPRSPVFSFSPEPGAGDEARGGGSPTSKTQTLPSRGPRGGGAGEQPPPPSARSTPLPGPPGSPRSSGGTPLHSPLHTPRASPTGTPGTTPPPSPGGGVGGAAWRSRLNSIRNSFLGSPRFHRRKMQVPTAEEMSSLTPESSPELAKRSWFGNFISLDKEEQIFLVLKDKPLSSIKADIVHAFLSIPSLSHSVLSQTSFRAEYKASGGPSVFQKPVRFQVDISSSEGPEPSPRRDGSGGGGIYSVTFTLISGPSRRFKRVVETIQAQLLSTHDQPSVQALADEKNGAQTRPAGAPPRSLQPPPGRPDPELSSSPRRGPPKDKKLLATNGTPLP
SETUP_CONDITIONS: at 1 µM
Supply the numeric figure in %, leaving out any unit text.

Answered examples (5):
- Fc1ccc(-c2ncn(C3CCNCC3)c2-c2ccnc(Oc3ccccc3)n2)cc1: -0.55
- CCn1c(-c2nonc2N)nc2c(C#CC(C)(C)O)ncc(OCC3CCNCC3)c21: 6.72
- COc1cccc(COc2cc(-n3cnc4ccccc43)sc2C(N)=O)c1: 5.63
- COc1cc2c(cc1Nc1nc(Nc3ccsc3C(N)=O)c3cc[nH]c3n1)N(C(=O)CN(C)C)CCC2: 1.57
- CCn1c(-c2nonc2N)nc2c(C#CCN)ncc(OCCCN)c21: 10.3

Now consider the entry below.
Enquiry: Can you look up inhibition on Serine/threonine-protein kinase BRSK1 (Homo sapiens) for `NS(=O)(=O)c1ccc(N/C=C2\C(=O)Nc3ccc4ncsc4c32)cc1` ?
Return: 53.1

----------
EXPERIMENTAL_TARGET: Serine/threonine-protein kinase Nek1 (Homo sapiens) (UniProt Q96PY6);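 note: mean percent inhibition of NEK1 kinase, from the GSK PKIS (published kinase inhibitor set) screening panel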
Sequence (whole entry): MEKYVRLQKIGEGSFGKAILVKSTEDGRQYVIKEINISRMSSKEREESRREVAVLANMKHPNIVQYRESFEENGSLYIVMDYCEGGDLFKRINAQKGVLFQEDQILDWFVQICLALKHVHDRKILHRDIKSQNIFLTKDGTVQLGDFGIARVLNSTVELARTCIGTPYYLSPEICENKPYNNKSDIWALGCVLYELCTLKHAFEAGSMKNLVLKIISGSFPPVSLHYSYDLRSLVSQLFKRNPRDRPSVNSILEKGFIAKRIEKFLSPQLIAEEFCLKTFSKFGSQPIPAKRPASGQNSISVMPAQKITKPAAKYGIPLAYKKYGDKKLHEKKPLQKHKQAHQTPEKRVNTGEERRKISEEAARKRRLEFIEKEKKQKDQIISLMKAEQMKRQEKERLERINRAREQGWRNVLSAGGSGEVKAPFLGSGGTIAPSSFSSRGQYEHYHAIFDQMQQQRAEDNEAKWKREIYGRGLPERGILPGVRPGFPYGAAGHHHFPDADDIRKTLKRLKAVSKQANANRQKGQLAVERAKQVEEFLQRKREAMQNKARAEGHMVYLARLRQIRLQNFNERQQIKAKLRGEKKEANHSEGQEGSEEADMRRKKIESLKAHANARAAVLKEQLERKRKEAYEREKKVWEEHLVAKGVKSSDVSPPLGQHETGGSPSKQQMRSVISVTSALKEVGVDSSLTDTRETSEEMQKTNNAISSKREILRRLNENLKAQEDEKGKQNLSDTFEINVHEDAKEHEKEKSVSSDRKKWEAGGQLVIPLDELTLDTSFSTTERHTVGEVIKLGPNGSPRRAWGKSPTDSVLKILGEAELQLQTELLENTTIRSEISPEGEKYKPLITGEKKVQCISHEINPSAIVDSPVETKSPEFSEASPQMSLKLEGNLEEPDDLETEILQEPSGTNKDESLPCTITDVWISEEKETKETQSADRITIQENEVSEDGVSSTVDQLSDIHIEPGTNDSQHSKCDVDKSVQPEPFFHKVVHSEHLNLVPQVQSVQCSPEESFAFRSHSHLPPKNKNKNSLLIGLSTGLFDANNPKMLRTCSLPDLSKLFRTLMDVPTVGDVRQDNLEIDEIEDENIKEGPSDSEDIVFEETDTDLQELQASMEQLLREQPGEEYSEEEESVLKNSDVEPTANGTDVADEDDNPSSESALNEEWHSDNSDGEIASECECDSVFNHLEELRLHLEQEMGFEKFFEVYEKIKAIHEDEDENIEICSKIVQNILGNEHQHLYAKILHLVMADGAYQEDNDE
SETUP_CONDITIONS: at 0.1 µM
Parameter: inhibition. Scope: all listed entries.
Supply the numeric figure in %, leaving out any unit text.

Answered examples (6):
* NS(=O)(=O)c1ccc(-c2ccc3c(NC(=O)C4CC4)n[nH]c3c2)cc1 | 1.11
* COc1cccc(COc2cc(-n3cnc4ccccc43)sc2C(N)=O)c1 | 0.41
* NS(=O)(=O)c1ccc(N/C=C2\C(=O)Nc3ccc4ncsc4c32)cc1 | 2.04
* CCn1c(-c2nonc2N)nc2c(C#CCN)ncc(OCCCN)c21 | -2.66
* CCn1c(-c2nonc2N)nc2c(C#CC(C)(C)O)ncc(OCC3CCNCC3)c21 | 2.19
* Cc1cc(-c2ccco2)cc(C)c1/C=C/c1cncc(-c2nn[nH]n2)c1 | 1.34

Enquiry: Any idea what its inhibition is? The compound is `COc1cccc(-n2ncc3c(N/N=C/c4ccncc4)ncnc32)c1`
Return: 3.6
